# Test system: TFPI
# Condition summary: read-out: IC50 Mean
Endpoint name: pIC50
pIC50 field: float, defined as -log10 of concentration (mol/L).

q: Look up pIC50 for this substance: Ac-FQSKGNVFVTGYFDRLRAKL-NH2 [JBT0775 | 69]
a: 7.66

* * *

# Assay details: in vitro
# Condition summary: human, plasma
Bridges are numbered along the chain shown (N, C = ends). [ ]: non-standard residue; d: D form. Aib = CC(C)(N)C(=O)O
Endpoint name: remaining at 24 h (%)
Answer with a number only, understood to be in %.

q: What does the record list as remaining at 24 h for Ac-FQSK[dP]NVHVDGYFERL[Aib]AKLSSSSSSSSSSSYYKWHCAMRDMKGTMTCVWVKF-NH2 (disulfide 37-48 (inferred)) [JBT2547] ?
a: 54
